Assign protein stability index to each entry below.
B1: PRIM1 (parent)
chain: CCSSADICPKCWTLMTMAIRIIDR

Variants of: B1
Assay: protein stability index of a GFP-peptide fusion (GPS, HEK-293T) (PSI 1-6); higher = more stable;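 further: lentivirally expressed fusions sorted by FACS into six bins by GFP to DsRed ratio, PSI derived from sequencing read proportions per bin multiplied by bin number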
Settings: c terminus: a fixed tail appended

Here are 4 variants together with their reported answers.
I21F :: 1.39
T13K :: 2.46
I22N :: 2.52
A5I :: 1.33

Give protein stability index for all variants that follow.
1. W12T
2. C2V
3. W12E

1. 1.88
2. 2.06
3. 2.05
